System: LOX IMVI melanoma
measurement.protocol: NCI tumour cell line growth inhibition, 48 h
Give measured TGI for each item. Keep answers brief.
Please state the figure in µM; there is no need to write the unit.

For `COc1ccc(OC)c2c1C=CC(Br)=CC2` , what is its reported TGI?
0.302

Record request: TGI value, item `O=C(N/N=C/c1cc(Br)cc(Br)c1[O-])c1ccccc1O.O=C(N/N=C/c1cc(Br)cc(Br)c1[O-])c1ccccc1O.[Zn+2]`
13.7

GET /values?readout=TGI&item= `CCc1nc2ccc(N=Nc3c(O)ccc4ccccc34)cc2[nH]1`
28.8

Given the entry `COc1cccc(Nc2nc3ccccc3c3occc23)c1` , report its measured TGI.
8.39

So what does the record say about TGI for `Nc1c(Cl)ncnc1NCCCCCCCCCCCCNc1ncnc(Cl)c1N` ?
6.52

====

System: NCI-H522 lung
measurement.protocol: NCI tumour cell line growth inhibition, 48 h
property.label: log10(TGI) (log10 of the value in µM)
Short version: log10 scale, TGI, µM.

Data request, read-out log10(TGI), for `O=C(/C=C\c1cccc2ccccc12)c1ccc(Cl)cc1Cl`
1.55

Using the record for `COc1ccc(OC)c2c1C=CC(Br)=CC2` , report its log10(TGI).
-0.24

Returns the measured log10(TGI) for the input compound. Input: `CCOC(=O)/C=C(/C(=O)OCC)n1ccc(=O)n(Cc2cnnn2COCCOC(C)=O)c1=O`
0.67

# query: log10(TGI) of entry `Clc1ccc(CCN[C@H]2CCCC[C@H]2N2CCCC2)cc1Cl`
1.52

Look up log10(TGI): `CCCCCC/C=C\CCCCCCCCCC1=C(CN2CCN(C)CC2)C(=O)C=C(OC)C1=O`
0.48

Which log10(TGI) is reported for this compound? `Cc1cc2c(-c3nc4ccccn4c3N)c(O)c(O)cc2c(O)c1-c1c(C)cc2c(-c3nc4ccccn4c3N)c(O)c(O)cc2c1O`
0.69

Quick check: log10(TGI) of `CCOc1ccn(-c2ccc(F)cc2)c(=O)c1C(=O)Nc1ccc(Oc2ccnc(N)c2Cl)c(F)c1` ?
1.84

Please look up its log10(TGI): `O=C1c2ccccc2-c2c1c1ccccc1c(=O)n2CCCNCCn1c2c(c3ccccc3c1=O)C(=O)c1ccccc1-2`
1.68

Query: log10(TGI); subject: COC1OC2COC(C)(C)OC2C(OC(C)=O)C1NC(=O)N(CCCl)N=O (stereo not given)
1.83

Item under review: [B-][P+](CC[P+]1([B-])[C@@H](C)[C@@H](O)[C@H](O)[C@@H]1C)(c1ccccc1)c1ccccc1OC (stereo not given in full) . Reported log10(TGI)?
1.42

What does the record list as log10(TGI) for `CC(C)=CCC[C@@H](C)C1=C(O)C(Nc2ccccc2Cl)=C(C)C(=O)C1=O` ?
1.36

Any idea what its log10(TGI) is? The compound is CCN(CC)CCN(C)c1ccc(CO)c2c1C(=O)c1ccccc1S2=O (stereo not given)
0.63

Tell me the measured log10(TGI) of `COC(=O)c1oc2c(C(=O)/C=C/c3ccc(OC)cc3)c(OCCN(C)C)ccc2c1C` , please.
1.31

// lookup log10(TGI) for CCN(CC)CCCC(C)Nc1c2cc(OC)cc(C)c2nc2c(C)c(Cl)ccc12 (stereo not given)
0.49

Query: log10(TGI); subject: CC(=O)N1N=C(c2ccc(Nc3nc(Nc4ccc(F)cc4)nc(Nc4ccc(F)cc4)n3)cc2)CC1c1ccc(N(C)C)cc1 (stereo not given)
1.48

Which log10(TGI) value is on record for `COc1ccc2c(c1)/C(=C\c1c(Cl)[nH]c3ccccc13)C(=O)N2` ?
1.06

====

I'd be grateful if you could share measured TGI for these entries.
Tested on: NCI-H23 lung
measurement.protocol: NCI tumour cell line growth inhibition, 48 h

Reported TGI, compound CCOP(=O)(OCC)C(C(=O)OC)C(=O)C(=O)Nc1cccc(O)c1 (stereo unspecified) : ____
> 100 µM

So what does the record say about TGI for `COC(C)(C)/C=C/c1[nH]c2ccccc2c1CC(=O)NCCc1cn(C(c2ccccc2)(c2ccccc2)c2ccccc2)cn1` ?
22.9 µM

What measured TGI goes with `Cc1ccc(C)n2c1nc1ccccc12` ?
> 100 µM

Param item = CC1=CC[C@@]2(C)CC[C@](O)(C(C)C)C2C(OC(=O)c2ccccc2)C1 (stereo partly specified) ; retrieve measured TGI.
38.9 µM

For the compound `O=C(/C=C/c1cccc([N+](=O)[O-])c1)c1ccc([N+](=O)[O-])cc1` , what TGI is on record?
> 100 µM

Record request: TGI value, item `COC(=O)c1cc(NC(=O)Cc2c[nH]c3ccccc23)cn1C`
> 100 µM

Requested read-out: TGI. Entry: CC(=O)OCC1OC(n2c3c(c(-c4ccc(Cl)cc4)c(C#N)c2=S)CCCC3)C(OC(C)=O)C(OC(C)=O)C1OC(C)=O (stereo unspecified)
> 100 µM

Give the measured TGI of `Nc1nc(NCCCO)cc(=O)[nH]1` .
> 100 µM

Given the entry `Cc1cc(C)c(-c2c(N)cc(Br)cc2Br)c(N)c1` , report its measured TGI.
18 µM

Look up TGI: `CC(=O)[C@H]1CCC/C=C/[C@@H]2C[C@H](O)C[C@H]2[C@H](O)/C=C/C(=O)O1`
5.58 µM

# query: TGI of entry O=C(O)C1[O][Sb][O]C(C(=O)O)C1O (stereo unspecified)
> 100 µM

Fill blank: measured TGI of the compound CC(=O)c1ccc2c(c1)CC1(C2)Cc2cc3c(c(C(=O)O)c2C1)CCC3 (stereo unspecified) is ____.
> 100 µM

For the compound shown here, `CN1CCN(Cc2ccc(NC(=O)c3cncc(C#Cc4cnc(N)c5cccnc45)c3)cc2C(F)(F)F)CC1` , give the reported TGI.
> 50 µM

Returns the measured TGI for the input compound. Input: `COc1nc(N)c(NC(C)=O)c(=O)n1C`
> 100 µM

Find the recorded TGI belonging to COC1CC(OC2C(C)OC(OC3C(C)OC(OC4C(C)OC(O[C@H]5CC[C@@]6(C)C(=CC[C@]7(O)[C@@H]6C[C@@H](OC(C)=O)[C@@]6(C)[C@]7(O)CC[C@@]6(O)C(C)=O)C5)CC4OC)CC3OC)CC2OC)OC(C)C1O (stereo partly specified) and report it.
> 25 µM

Data request, read-out TGI, for `COC(=O)CCNC(=O)OCc1ccccc1`
> 100 µM

Which TGI is listed for `CN(C)N1C(=O)S/C(=C\c2ccc([N+](=O)[O-])cc2)C1=O` ?
> 100 µM

Requested field: TGI. Item: O=C1CCc2ccc(O)c(c2)Oc2ccc(cc2)C(Sc2ccccc2)CCO1 (stereo unspecified)
27.3 µM

Which TGI is reported for this compound? `Cc1cccc2sc(-c3ccc(O)cc3)nc12`
31.9 µM

Can you share its TGI? I mean this compound: `O=C1Nc2nccnc2C(=O)N2CCC[C@@H]12`
> 100 µM

// returns reported TGI for input CCOC(=O)CC(NC(=O)c1[nH]cnc1/N=N/N(C)C)C(=O)OCC (stereo unspecified)
> 100 µM

====

System: HCT-15 colon
measurement.protocol: NCI tumour cell line growth inhibition, 48 h; in the data active = GI50 below about 0.43 µM; inactive = the rest
// classify into active, inactive

Record request — test call for `Cc1cc(Nc2cc(N3CCN(C)CC3)nc(/C=C/c3ccccc3)n2)n[nH]1`
active

Just curious, what result did O=C(NCC1CCCO1)c1ccc(NC2=C(Cl)C(=O)N(Cc3ccccc3)C2=O)cc1 (stereo not given) get here?
inactive

Lab log entry: `Cc1cc(C)c(-c2c(N)cc(Br)cc2Br)c(N)c1` — outcome as called in the assay?
inactive

Returns: the outcome recorded for `Cc1cc(-c2cc(O)ccc2Cl)cc2nnc(Nc3ccc(OCCN4CCCC4)cc3)nc12` in this assay.
active

Fill in: this test's call for CCCCCCCCCCCCOC1C(CNC(=O)C2OC3OC(C)(C)OC3C2NC(=O)CN2CCN(c3ccc(OC)cc3)CC2)OC2OC(C)(C)OC21 (stereo not given) is ___
inactive

====

Tested on: 786-0 renal
measurement.protocol: NCI tumour cell line growth inhibition, 48 h
Could you please report measured TGI for the items listed next?

What TGI appears in the records for this compound with 786-0 renal? CC(C)(Cl)C(Br)CCC(Br)(CCl)C(Cl)CBr (stereo not drawn)
> 10 µM

Please tell me: TGI of `N#Cc1cnc(Nc2cc(NC[C@H]3CNCCO3)c(C(F)(F)F)cn2)cn1` , system 786-0 renal?
29 µM

Give the reported TGI for `CN(CCCNC(=O)c1cn(C)c2c1Cc1ccccc1-2)CCCNC(=O)c1cn(C)c2c1Cc1ccccc1-2` (system: 786-0 renal).
17.9 µM

# query: TGI | item `COC(=O)[C@@H]1Cc2c([nH]c3ccccc23)[C@H](c2ccccc2)N1` | system: 786-0 renal
> 100 µM

Observed TGI on 786-0 renal for CC(=O)NCC1OC2COC(c3ccccc3)OC2C(NC(=O)c2ccccc2)C1OC(=O)c1ccccc1 (stereo not drawn) , please.
> 100 µM

Please provide the recorded TGI for `Cc1cc(-c2cc(O)ccc2Cl)cc2nnc(Nc3ccc(OCCN4CCCC4)cc3)nc12` , tested on 786-0 renal.
0.343 µM

Short answer please: TGI, 786-0 renal, entry CCN(CC)CCCC(C)Nc1c2cc(OC)cc(C)c2nc2c(C)c(Cl)ccc12 (stereo not drawn)
3.02 µM

Give TGI (786-0 renal) of the following compound: `CCCCCCCCCC[C@H](O)[C@H](O)CC[C@@H](O)[C@H]1CC[C@@H]([C@H]2CC[C@H](CCCCCCC[C@@H](O)CC3=C[C@H](C)OC3=O)O2)O1`
> 100 µM

Test system 786-0 renal; read-out TGI; what value for COC1CC(OC2C(C)OC(OC3C(C)OC(OC4C(C)OC(O[C@H]5CC[C@@]6(C)C(=CC[C@]7(O)[C@@H]6C[C@@H](OC(C)=O)[C@@]6(C)[C@]7(O)CC[C@@]6(O)C(C)=O)C5)CC4OC)CC3OC)CC2OC)OC(C)C1O (stereo partly drawn) ?
> 25 µM

# get_value(readout= TGI, system= 786-0 renal) for `CCCSc1ccc2[nH]c(N3C(=O)/C(=C/c4ccc(SC)cc4)N=C3c3ccccc3)cc2c1`
> 50 µM

Test system 786-0 renal; read-out TGI; what value for `O=[S@]1c2ccc3ccccc3c2N[C@@H]2[C@H]1[C@H]1C=C[C@@H]2C1` ?
> 100 µM

Form: Entry = `Cc1nc2c(o1)C(=Nc1ccccc1)c1nc(C)oc1C2=Nc1ccccc1` | System = 786-0 renal | TGI = ____
34.2 µM

Record `COc1cccc(Nc2nc3ccccc3c3occc23)c1` : what is its TGI with 786-0 renal?
23.7 µM

Write down the reported TGI of `CCOC(=O)c1nc2ccc(C(F)(F)F)cc2nc1NCc1ccc(OC)c(OC)c1` , test system: 786-0 renal.
> 100 µM

Query for 786-0 renal: what TGI does the record show for `Cc1cc(=O)n(-c2cc3cccccc-3n2)[nH]1` ?
18 µM

// fetch 786-0 renal TGI for `CCOc1ccccc1N=Nc1c(-c2ccccc2)nn(C(=O)CC(=O)Nc2cccc(C)c2)c1-c1ccccc1`
> 100 µM

Provide the documented TGI with 786-0 renal as the system for `COC(=O)/C=C1/OC(c2ccccc2)=C(C)C1=O`
22.3 µM

Reported TGI for 786-0 renal, given COC1OC2COC(C)(C)OC2C(OC(C)=O)C1NC(=O)N(CCCl)N=O (stereo not drawn) ?
> 100 µM

Short answer please: TGI, 786-0 renal, entry CSc1nc2c(c(=O)n1C)N=C(c1ccc([N+](=O)[O-])cc1)CC(c1ccccc1)N2 (stereo not drawn)
> 100 µM

Look up TGI with 786-0 renal for this compound: O=C(c1ccc(Cl)cc1)C(O)c1ccc(Cl)cc1 (stereo not drawn)
> 100 µM

Requested read-out TGI, target or system 786-0 renal, entry `CCNC(=O)OCc1c(COC(=O)NCC)c(-c2ccc(Cl)c(Cl)c2)n2c1CCC2`
33.5 µM

Could you share what TGI was measured for `S=c1ncc2c([nH]1)C1c3ccccc3C2c2ccccc21` , tested on 786-0 renal?
> 100 µM

Test system 786-0 renal; read-out TGI; what value for `CN(C)N1C(=O)S/C(=C\c2ccc([N+](=O)[O-])cc2)C1=O` ?
> 100 µM

Requested read-out TGI, target or system 786-0 renal, entry C=CCC(N[C@@H](CO)c1ccccc1)c1cn(C(=O)OCC)c2ccccc12 (stereo partly drawn)
36.7 µM

Please tell me: TGI of COC(=O)C1=CC2C=CC(C1C(=O)OC)C1C(C(=O)OC)=C(C(=O)OC)C(C(=O)OC)=C(C(=O)OC)C21OC (stereo not drawn) , system 786-0 renal?
> 100 µM

Look up TGI with 786-0 renal for this compound: `Nc1c(Cl)ncnc1NCCCCCCCCCCCCNc1ncnc(Cl)c1N`
66.1 µM

// map `CC[C@@H](C)/C=C(C)/C=C/C(=O)c1c(O)c(-c2ccc(O)cc2)cn(O)c1=O` to recorded TGI (system: 786-0 renal)
5.17 µM

# query: TGI | item `CCN(Cc1cccc(Cl)c1)c1ccc(CO)c(Cl)c1` | system: 786-0 renal
20.9 µM

786-0 renal / TGI / `COC(=O)c1cc(NC(=O)Cc2c[nH]c3ccccc23)cn1C` : value?
> 100 µM

Item: `Cc1cc(Nc2cc(N3CCN(C)CC3)nc(/C=C/c3ccccc3)n2)n[nH]1` Test system: 786-0 renal Read-out: TGI Value: ?
> 6.25 µM

Give 786-0 renal TGI for Clc1cccc(C2N3CCCCC3[C@@H]3c4[nH]c5ccccc5c4CCN23)c1 (stereo partly drawn)
> 100 µM

Enter reported TGI observed with 786-0 renal for CC1C2C=C(O)C(=O)C(C2=O)C1c1ccccc1 (stereo not drawn)
> 100 µM

# get_value(readout= TGI, system= 786-0 renal) for Cn1c2c(c3ccccc31)CCN1C(=O)CCC21 (stereo not drawn)
> 10 µM
